tested on: P. berghei; assay: Prophylactic activity against P. berghei in vivo (mice dosed before infection); settings: single 100 mg/kg oral dose 48 h prior to infection; n=5 mice
Provide the recorded Cures 48 h prior to infection (100 mg/kg) for the entries that follow.

Query: # return recorded Cures 48 h prior to infection (100 mg/kg) for entry CS(=O)(=O)O.c1cc([C@H]2CC[C@]3(CC2)OOC2(O3)C3CC4CC(C3)CC2C4)ccc1OCCCN1CCOCC1 (stereo partly drawn)
Reply: 5/5

Query: # return recorded Cures 48 h prior to infection (100 mg/kg) for entry CS(=O)(=O)O.NCCCCCOc1ccc(C2CCC3(CC2)OOC2(O3)C3CC4CC(C3)CC2C4)cc1 (stereo not drawn)
Reply: 5/5

Query: # return recorded Cures 48 h prior to infection (100 mg/kg) for entry OC(c1cc(C(F)(F)F)nc2c(C(F)(F)F)cccc12)C1CCCCN1 (stereo not drawn) [MQ, mefloquine, reference compound]
Reply: 3/5

Query: # return recorded Cures 48 h prior to infection (100 mg/kg) for entry O[C@H]1CC[C@@H](C2CCC3(CC2)OOC2(O3)C3CC4CC(C3)CC2C4)CC1 (stereo partly drawn)
Reply: 4/5

Query: # return recorded Cures 48 h prior to infection (100 mg/kg) for entry CS(=O)(=O)O.NC1CCC(Oc2ccc(C3CCC4(CC3)OOC3(O4)C4CC5CC(C4)CC3C5)cc2)CC1 (stereo not drawn) [OZ537]
Reply: 5/5

Query: # return recorded Cures 48 h prior to infection (100 mg/kg) for entry CC(C)(N)CCOc1ccc(C2CCC3(CC2)OOC2(O3)C3CC4CC(C3)CC2C4)cc1.Cc1ccc(S(=O)(=O)O)cc1 (stereo not drawn)
Reply: 5/5

Query: # return recorded Cures 48 h prior to infection (100 mg/kg) for entry C[C@H]1[C@H](OC(=O)CCC(=O)O)O[C@@H]2O[C@@]3(C)CC[C@H]4[C@H](C)CC[C@@H]1[C@@]24OO3 [AS, artesunate, reference compound]
Reply: 0/5

Query: # return recorded Cures 48 h prior to infection (100 mg/kg) for entry Cc1ccc(S(=O)(=O)O)cc1.O[C@H]1CC[C@H](NCCCOc2ccc([C@H]3CC[C@]4(CC3)OOC3(O4)C4CC5CC(C4)CC3C5)cc2)CC1 (stereo partly drawn)
Reply: 5/5

Query: # return recorded Cures 48 h prior to infection (100 mg/kg) for entry CS(=O)(=O)N1CCN(CCOc2ccc([C@H]3CC[C@]4(CC3)OOC3(O4)C4CC5CC(C4)CC3C5)cc2)CC1.CS(=O)(=O)O (stereo partly drawn)
Reply: 5/5

Query: # return recorded Cures 48 h prior to infection (100 mg/kg) for entry O=C1CCC([C@H]2CC[C@]3(CC2)OOC2(O3)C3CC4CC(C3)CC2C4)CC1 (stereo partly drawn)
Reply: 0/5

Query: # return recorded Cures 48 h prior to infection (100 mg/kg) for entry CS(=O)(=O)O.c1cc([C@H]2CC[C@]3(CC2)OOC2(O3)C3CC4CC(C3)CC2C4)ccc1OC1CCNCC1 (stereo partly drawn)
Reply: 5/5

Query: # return recorded Cures 48 h prior to infection (100 mg/kg) for entry CS(=O)(=O)O.c1cc(C2CCC3(CC2)OOC2(O3)C3CC4CC(C3)CC2C4)ccc1OCCN1CCSCC1 (stereo not drawn)
Reply: 5/5
